Hey, just so you know, these numbers are from the supplement of paper PMC7411054.

System: WPMY1-TP53BP1-CLTA
Experiment: phenotypically active (imaging signature differs from DMSO and reproducible) at any of 0.3-9 uM (binary (1 = active, 0 = inactive)); higher = active
Settings: treatment time: 24 h
# reported phenotypically active; entries follow
Quick one: just the number, no unit, thanks!

compound	phenotypically active
Cc1cccc(CCN2CCC(C(=O)c3ccc(NS(C)(=O)=O)cc3)CC2)n1	0

Give its phenotypically active value. Item: O=C(c1ccccc1)c1ccc2n1CCC2C(=O)O (stereo not given) [ketorolac]
0

Please look up its phenotypically active: CC(C)NCC(O)c1ccc(NS(C)(=O)=O)cc1 (stereo not given) [sotalol]
0

Returns the measured phenotypically active for the input compound. Input: COc1cc2c(cc1OC)CC(=O)N(CCCN(C)C[C@H]1Cc3cc(OC)c(OC)cc31)CC2 [ivabridine]
0

Entry under review: COc1ccc2c(c1)c(CC(=O)O)c(C)n2C(=O)c1ccc(Cl)cc1 [indomethacin] . Reported phenotypically active?
0

---

This section presents compounds with their documented phenotypically active values.
System: A549-ACTB-RAB5A
Test: phenotypically active (imaging signature differs from DMSO and reproducible) at any of 0.3-9 uM (binary (1 = active, 0 = inactive)); higher = active
Conditions: treatment time: 24 h
Kindly provide the number alone.

Param item = "Nc1ccc(-c2ccc3ncc4ccc(=O)n(-c5cccc(C(F)(F)F)c5)c4c3c2)cn1" ; retrieve measured phenotypically active.
1

---

Test system: A549-TP53BP1-CLTA
Experiment: phenotypically active (imaging signature differs from DMSO and reproducible) at any of 0.3-9 uM (binary (1 = active, 0 = inactive)); higher = active
Details: treatment time: 24 h
Listing of entries alongside the reported phenotypically active.
// no unit, no text: just the number

// known answers, use as guide
compound	target.entity	assay.endpoint	result
OCC(CO)N[C@H]1C[C@](O)(CO)[C@@H](O)[C@H](O)[C@H]1O	A549-TP53BP1-CLTA	phenotypically active	0
O=C(O)c1ccc(O)c2ncccc12	A549-TP53BP1-CLTA	phenotypically active	0
CC(C)C1=CC2=CCC3[C@](C)(CCC[C@]3(C)C(=O)O)C2CC1 (stereo partly drawn)	A549-TP53BP1-CLTA	phenotypically active	0

GET /values?readout=phenotypically active&item= C[C@@H]1O[C@@H](OC[C@H]2O[C@@H](Oc3c(-c4ccc(O)c(O)c4)oc4cc(O)cc(O)c4c3=O)[C@H](O)[C@@H](O)[C@@H]2O)[C@H](O)[C@H](O)[C@H]1O [Quercétine-3-rutinoside]
0

# lookup: phenotypically active of "Nc1ncnc(Nc2ccc(OCc3ccccc3)c(Cl)c2)c1/C=N/OCCN1CCOCC1"
1

Need phenotypically active, item "CS(=O)(=O)c1ccc(-c2nnc(/C=C/c3nnc(-c4ccc(C#N)cc4)o3)n2-c2ccccc2Cl)nc1"
0

Any idea what phenotypically active was measured for Cc1cnc(C(=O)NCCc2ccc(S(=O)(=O)NC(=O)NC3CCCCC3)cc2)cn1 [glipizide] ?
0

Fill in the blank: the reported phenotypically active of Cc1ccccc1N1C(=O)c2cc(S(N)(=O)=O)c(Cl)cc2NC1C (stereo not drawn) is ____.
0

---

Tested on: WPMY1-ACTB-RAB5A
Assay: phenotypically active (imaging signature differs from DMSO and reproducible) at any of 0.3-9 uM (binary (1 = active, 0 = inactive)); higher = active
Conditions: treatment time: 24 h
Where a name gives a salt, the structure may show the parent alone.
Just give me one of these, please: 1 (yes) = active, 0 (no) = inactive

Field: example entries. Status: answers known.
compound	assigned.class
CC(C(=O)O)c1ccc(C(=O)c2cccs2)cc1 (configuration not stated)	0 (no)
COC1=C(O)C(=O)c2ccccc2C1=O [2-hydroxy-3-methoxy-naphtoquinone]	0 (no)
O=C1CCc2ccc(OCCCCN3CCN(c4cccc(Cl)c4Cl)CC3)cc2N1	0 (no)
COP(=O)(OC)OC(c1ccc(Cl)cc1)P(=O)(OC)OC (configuration not stated)	0 (no)
Nc1ncnc2[nH]nc(Nc3ccc(F)cc3)c12	1 (yes)

Could you please tell me the result logged for "CCCCC(=O)N(Cc1ccc(-c2ccccc2-c2nnn[nH]2)cc1)[C@H](C(=O)O)C(C)C" in this assay?
0 (no)

Assay result, entry CCCCCCC(=O)OC1CC(C)(C)NC(C)(C)C1 [TMPH hydrochloride] — outcome?
0 (no)

Give the logged outcome of this assay for the following compound: CN1C(CSCC(F)(F)F)Nc2cc(Cl)c(S(N)(=O)=O)cc2S1(=O)=O (configuration not stated) [polythiazide]
0 (no)

Recorded test outcome, item "NC(=O)c1cccc(-c2cc(Nc3ccc(OC(F)(F)F)cc3)ncn2)c1"
1 (yes)

Answer briefly: the call reported for "CCN(CCO)CCCOc1ccc2c(Nc3cc(CC(=O)Nc4cccc(F)c4)n[nH]3)ncnc2c1" in this assay.
1 (yes)

I would be grateful if you could indicate the recorded call for "CC1(C)CC(=O)c2c(S(C)(=O)=O)sc(Cl)c2C1" .
0 (no)
